Recorded values, source PubChem BioAssay (NCI).

Tested on: UO-31 renal
Measurement protocol: NCI tumour cell line growth inhibition, 48 h
Reported metric: TGI (µM)
State just the number; it will be interpreted in µM.

Some solved cases for reference:
[in] Hello, please tell me recorded TGI for this one: COCCn1c(Nc2ccc(C(=O)NO)cc2)nc2ccccc21
[out] 17.1

[in] Input O=c1[nH]c(=O)n(Cc2ccc(C34CC5CC(CC(C5)C3)C4)c(O)c2)cc1F , output reported TGI.
[out] 29.8

[in] Look up TGI of CN(N=O)C(=O)NC(CCCCNC(=O)OCc1ccccc1)C(=O)OCc1ccccc1 (stereo not given) and report it.
[out] 38.3

Please look at the following molecule next.
[in] For the molecule CCCN1CCC(Oc2cc(Nc3nc(Nc4cccc(F)c4C(N)=O)c4cc[nH]c4n3)c(OC)cc2Cl)CC1 , give its measured TGI value.
[out] 8.93

----------
# Lookup of reported TGI keyed by entry
System: IGROV1 ovarian
Measurement protocol: NCI tumour cell line growth inhibition, 48 h

[in] Please report the measured TGI for CS(=O)(=O)N(CCC#N)c1ccc(/C=C2\N=C(c3ccccc3Cl)OC2=O)cc1
[out] > 100 µM

[in] Report measured TGI; entry is C[N+](C)(N)Cc1nc(-c2ccc(Cl)cc2)no1
[out] > 100 µM

[in] Return TGI for the following molecule: COc1ccc(Nc2nc3ccccc3nc2-c2cccs2)cc1OC
[out] > 10 µM

[in] Assign TGI to the following record: COc1cc2c(cc1OCCCCCOc1ccc(-c3nc4ccccc4s3)cc1)N=C[C@@H]1CCCN1C2=O
[out] 43.5 µM

[in] State its TGI for this molecule: CC(NC(=O)c1ccc(Cl)c(Cl)c1)c1ccc(-c2ccccc2)cc1 (stereo unspecified)
[out] > 100 µM

[in] Tell me TGI reported for COc1nc2ncc([C@@H](OC(C)=O)[C@@H](COC(C)=O)OC(C)=O)nc2c(=O)n1C
[out] > 100 µM

[in] Please list TGI recorded for the molecule Cc1cc2c(cc1Cl)SC(=Nc1ccc(Cl)cc1)N(S(=O)(=O)c1ccc(Br)s1)S2(=O)=O
[out] 55.2 µM

[in] For CN(C(=O)Cc1cc(Cl)c(Cl)cc1NC(=O)CCCN)[C@H]1CCCC[C@@H]1N1CCCC1 , write its TGI.
[out] > 100 µM

[in] Look up and state reported TGI for Fc1ccc(F)c(C=NC23CC4CC(CC(C4)C2)C3)c1
[out] > 10 µM

[in] Return reported TGI. Input molecule: CCO/C(O)=c1/s/c(=C2/SC(=S)N(c3ccc(C)cc3)C2=O)n(-c2ccccc2)c1=N
[out] > 100 µM

[in] Assign TGI to the following record: CCOc1ccc2c(c1)[n+]([O-])c(C(N)=O)c(N)[n+]2[O-]
[out] > 100 µM

----------
System: MDA-MB-435
Measurement protocol: NCI tumour cell line growth inhibition, 48 h
Reported metric: TGI (µM)
Your answer is read as µM, so omit the unit and give the number.

[in] Please tell me the measured TGI for CN1CCN(CCCOC(=O)c2c3c(n4ccccc24)C(=O)c2ncccc2C3=O)CC1 ; system: MDA-MB-435.
[out] 0.162

[in] Enter measured TGI, system MDA-MB-435, for the molecule shown: CCN(Cc1ccccc1)c1ccc(/C=C2\COc3ccccc3C2=O)cc1
[out] 458

[in] Provide TGI, tested on MDA-MB-435, for CCCCCCc1cc2cc(C(=O)Nc3nc(C45CC6CC(CC(C6)C4)C5)cs3)c(=O)oc2cc1O .
[out] 31.4

[in] Provide measured TGI on MDA-MB-435 for OC(c1ccccc1)c1c(-c2ccccc2)[nH]c(-c2ccccc2)c1C(O)c1ccccc1 (centres undefined) please.
[out] 7.73

[in] With MDA-MB-435 as the test system, provide measured TGI for this molecule: CCCCCCCCCCCC1=NC(C)(C)CN1C(C)C
[out] 5.33

----------
System: M14 melanoma
Measurement protocol: NCI tumour cell line growth inhibition, 48 h
Reported metric: TGI

[in] Name the recorded TGI of the molecule listed here: Cc1ccc(/C=C/C(=O)c2ccc(F)cc2)s1
[out] 26.7 µM

[in] Specify measured TGI for CN(C(=O)Cc1cc(Cl)c(Cl)cc1NC(=O)CCCN)[C@H]1CCCC[C@@H]1N1CCCC1 .
[out] 34 µM

[in] Kindly indicate its recorded TGI. Item: CSC(=Nc1ccccc1)c1c(C)[nH]n(-c2ccccc2)c1=O
[out] > 100 µM

Continuing:
[in] Return value of TGI for input CCOC(=O)Cn1nnc2ccc(Nc3nc4ccccc4nc3C(=O)OCC)cc21 , no commentary.
[out] > 100 µM

[in] Quote TGI reported for CCn1c(-c2nonc2N)nc2cnc(Oc3cccc(NC(=O)c4ccc(OCCN5CCOCC5)cc4)c3)cc21 please.
[out] > 25 µM

----------
Tested on: M14 melanoma
Measurement protocol: NCI tumour cell line growth inhibition, 48 h
# log10 of TGI annotations
Parameter value (number): base-10 log of TGI in µM.

A selection of reference data follows.
[in] Recall and state the measured log10 of TGI for O=[N+]([O-])C1=Cc2c(O)ccc(O)c2C2OC=CC12 (stereo not given) .
[out] 1.54

[in] Supply measured log10 of TGI of CN1CCN(CCCOC(=O)c2c3c(n4ccccc24)C(=O)c2ncccc2C3=O)CC1 in your reply.
[out] -0.60

[in] Provide only the value of recorded log10 of TGI for O=C1CC(Nc2ccccc2)c2c(Cl)sc(Cl)c21 (stereo not given)
[out] 0.53

[in] Provide only the value of recorded log10 of TGI for CC(C)C(Sc1nc(-c2ccccc2)c(-c2ccccc2)[nH]1)C(=O)N/N=C/c1ccc(Cl)cc1 (stereo not given)
[out] 1.53

[in] // fetch log10 of TGI given entry N#CSc1c[nH]c2ccc(/C=C/C(=O)/C=C(O)/C=C/c3ccc4[nH]cc(SC#N)c4c3)cc12
[out] 0.55

We next turn to a different compound, shown below.
[in] Specify log10 of TGI for CCCCCOC(=O)c1c(C)[nH]c(/C=C2\N=C(c3ccc[nH]3)C=C2OC)c1C and stop.
[out] -1.32

----------
Tested on: CCRF-CEM leukemia
Measurement protocol: NCI tumour cell line growth inhibition, 48 h
Reported metric: TGI

[in] Give measured TGI for CC(C)(C)CNCCO (CCRF-CEM leukemia).
[out] > 100 µM

[in] Print CCRF-CEM leukemia TGI for COc1cc2c(cc1OCCCCCOc1ccc(-c3nc4ccccc4s3)cc1)N=C[C@@H]1CCCN1C2=O .
[out] > 100 µM

[in] Give TGI; test system CCRF-CEM leukemia; compound CSC(=Nc1ccc([N+](=O)[O-])cc1C#N)NC(=O)c1ccccc1
[out] > 100 µM

New cases:
[in] Give TGI; test system CCRF-CEM leukemia; compound CC1COS(=O)N1c1ccccc1 (stereo unspecified)
[out] > 100 µM

[in] State TGI (CCRF-CEM leukemia) of O=C1/C(=C/c2cc(O)c(O)c(O)c2)Oc2cc(O)cc(OC3OC(CO)C(O)C(O)C3O)c21 (stereo unspecified) .
[out] 44.5 µM

[in] Look up CCRF-CEM leukemia data: TGI of Cc1cc2c3c(c1)S(=O)(=O)c1cc(Cl)ccc1N3CCC2 , then report it.
[out] > 100 µM

[in] Quote TGI with test system CCRF-CEM leukemia for CC(=O)N1N=C(c2ccccc2)NC(=O)C1c1cc(C)c(O)c(C)c1 (stereo unspecified)
[out] > 100 µM

[in] Output reported TGI of the compound COc1cc2ncnc(Nc3cccc(Br)c3)c2cc1OC on CCRF-CEM leukemia.
[out] > 89.8 µM

[in] Tell me its TGI on CCRF-CEM leukemia: c1ccc(C/C(=N\Nc2nc3ccccc3[nH]2)c2ccccn2)cc1
[out] 0.375 µM

[in] Enter TGI (test system CCRF-CEM leukemia) for CCN(Cc1ccccc1)c1ccc(/C=C2\COc3ccccc3C2=O)cc1
[out] > 1000 µM

[in] // fetch TGI for Cc1ccc(N=NC(=Nc2ccc(F)cc2)c2ccc(N(CCC#N)CCC#N)cc2)cc1 ; system: CCRF-CEM leukemia
[out] > 100 µM

----------
Test system: SN12C renal
Measurement protocol: NCI tumour cell line growth inhibition, 48 h
Reported metric: GI50

Before answering, review these 2 worked examples.
[in] State recorded GI50 with SN12C renal, entry CCCCCCCCCCCC1=NC(C)(C)CN1C(C)C , no comment.
[out] 4040 nM

[in] Report the value of GI50 obtained on SN12C renal for Cc1cc(NC(=O)NCCCOc2ccc(N3C(N)=NC(N)=NC3(C)C)cc2Cl)ccc1S(=O)(=O)F .
[out] 558 nM

---
[in] Quote GI50 with test system SN12C renal for CCn1c(-c2nonc2N)nc2cnc(Oc3cccc(NC(=O)c4ccc(OCCN5CCOCC5)cc4)c3)cc21
[out] 6260 nM

[in] Please tell me the measured GI50 for CN(C)CCN1C(=O)c2cccc3cc(N)cc(c23)C1=O ; system: SN12C renal.
[out] 2830 nM

[in] Retrieve GI50 on SN12C renal; query CC(=O)Nc1ccc(CC[C@H]2CCC/C=C/[C@@H]3C[C@H](O)C[C@H]3[C@H](O)/C=C/C(=O)O2)cc1
[out] 333 nM

[in] Find the measured GI50 of [O-]c1ccccc1C=NCCN=Cc1ccccc1[O-].[O]=[U+2]=[O] with SN12C renal as test system.
[out] 28400 nM

[in] Enter recorded GI50 with SN12C renal for c1ccc2[nH]c(-c3ccc(Nc4nc(N5CCCC5)nc5[nH]ncc45)cc3)nc2c1 here.
[out] 1670 nM

[in] Report the value of GI50 obtained on SN12C renal for CN1CCN(c2ccc3nc(-c4[nH]ncc4Nc4ncnc5[nH]ccc45)[nH]c3c2)CC1 .
[out] 358 nM

[in] Find GI50 for CN1CCC2(CC1)C(=O)Nc1cc(NC(=O)c3ccc4c(c3)C[C@@H]3C(C)(C)[C@H](O)[C@H](F)C[C@@]3(C)O4)ccc12 on SN12C renal and write it down.
[out] 13200 nM
